What follows is literature data on pKi for Prostaglandin E2 receptor EP4 subtype (Homo sapiens, UniProt P35408).
By convention, pKi is the negative base-10 log of a molar concentration.

Look over these answered cases.
In: Which pKi is reported for this molecule? `Cc1ccc(C(=O)O)c(C)c1NC(=O)c1cc(-c2cccc(Cl)c2)cc2ccccc12`
Out: 8.46

In: Now the molecule `O=C(O)/C=C/c1ccccc1-c1cccc(-c2ccccc2OCc2ccccc2)c1`
Out: 5.77

In: Now the molecule `Cc1ccc(C(=O)O)c(C)c1NC(=O)c1cc(-c2cccc(CO)c2)cc2ccccc12`
Out: 8.70

In: Now the molecule `O=C(O)CCCCCNC(=O)[C@H](CCCCNC(=O)OCc1ccccc1)NC(=O)c1cc2ccccc2o1`
Out: 8.08

In: Now the molecule `O=C(NOCc1ccccc1)c1cccc(C[C@@H]2CCCC=C2c2nc(-c3ccccc3)c(-c3ccccc3)o2)c1`
Out: 9.17

More entries:
In: Which pKi is reported for this molecule? `O=C([O-])COc1cccc(C[C@@H]2CCCC=C2c2nc(-c3ccccc3)c(-c3ccccc3)o2)c1.[Na+]`
Out: 5.99

In: Now the molecule `C[C@H](NC(=O)c1cccc2c1N(Cc1ccc(OC(F)(F)F)cc1)CC2)c1ccc(C(=O)O)cc1`
Out: 8.82

In: Now the molecule `O=C(CCc1ccccc1-c1ccc(OCCCOc2cccc(CSCCc3ccccc3)c2)cc1)NS(=O)(=O)c1cccs1`
Out: 5.15

In: Now the molecule CCOc1c2c(c(OCC)c3ccccc13)C(=O)N(c1ccc(C(C)C(=O)O)cc1)C2 (centres undefined)
Out: 6.70

###

What follows is literature data on pKi for Prostaglandin E2 receptor EP4 subtype (Homo sapiens).
By convention, pKi is the negative base-10 log of a molar concentration.

In: Which pKi is reported for this compound? `O=C(O)c1ccc(CNC(=O)c2cc(F)cnc2Oc2ccc(F)cc2)cc1`
Out: 7.14

In: Now the compound `Cc1cc(C(=O)O)cc(C)c1NC(=O)c1cc(-c2ccccc2)cc2ccccc12`
Out: 8.09

In: Now the compound O=C(O)c1ccc(CCN2C(=O)CCN2CCC(O)Cc2cccc(I)c2)cc1 (centres undefined)
Out: 7.57

In: Now the compound Cc1cc(O)ccc1-c1cccc(C(O)/C=C/[C@H]2CCC(=O)N2CCCCCCC(=O)O)c1 (some centres undefined)
Out: 8.31

In: Now the compound O=C(O)c1ccc(CCN2C(=O)CCN2CCC(O)Cc2cccc(CCC3CC3)c2)cc1 (centres undefined)
Out: 6.48

In: Now the compound `Cc1cccc(/C=C/Cc2ccccc2/C=C/C(=O)O)c1OCc1c(Cl)cccc1Cl`
Out: 6.21

In: Now the compound `Cc1cccc(C)c1NC(=O)c1cc(-c2ccccc2)nc2ccccc12`
Out: 6.29

Shifting focus to the compound that follows.
In: Which pKi is reported for this compound? `O=C(CCc1ccccc1)NS(=O)(=O)c1ccccc1-c1ccc(CN2C(=O)c3ccccc3CCc3ccccc32)cc1`
Out: 4.89

###

What follows is literature data on Ki for UniProtKB P35408.
// return numeric value only (unit: nM, not printed)

Look over these answered cases.
In: Which Ki is reported for this compound? `C/C(=C\C=C\[C@H]1CCC(=O)N1CCc1ccc(C(=O)O)cc1)c1ccccc1`
Out: 29

In: Now the compound Cc1cc(Cl)ccc1-c1cccc(C(O)/C=C/[C@H]2CCC(=O)N2CCCCCCC(=O)O)c1 (stereo not given in full)
Out: 3.1

In: Now the compound `Cc1ccc(CN2CCc3cccc(C(=O)N[C@@H](C)c4ccc(C(=O)O)cc4)c32)cc1`
Out: 0.78

More entries:
In: Which Ki is reported for this compound? `O=C(O)CCc1ccccc1-c1cccc(-c2ccccc2)c1`
Out: 6000

In: Now the compound `CC/C(C)=C\C=C\[C@H]1CCC(=O)N1CCc1ccc(C(=O)O)cc1`
Out: 24

In: Now the compound `Cc1cccc(CCCc2ccccc2/C=C/C(=O)O)c1OCc1ccccc1`
Out: 2900

###

What follows is literature data on Ki for Prostaglandin E2 receptor EP4 subtype (Homo sapiens).
Label key: y means Ki under 3000 nM; n means Ki of 3000 nM or more.

In: Consider `CC(C)(C(=O)NS(=O)(=O)c1ccccc1-c1ccc(CN2C(=O)c3ccccc3CCc3ccccc32)cc1)c1ccccc1` . Does its Ki lie strictly below 3000 nM?
Out: n

In: Now the molecule `CC(=O)c1ccc(OCc2ccccc2)c(/C=C/Cc2ccccc2/C=C/C(=O)O)c1.CC(=O)c1ccc(OCc2ccccc2)c(C/C=C/c2ccccc2/C=C/C(=O)O)c1`
Out: y

In: Now the molecule `CCCC1([C@H](O)C/C=C/[C@H]2[C@H](O)CC(=O)[C@@H]2CCCCCCC(=O)OC)CCC1`
Out: n

More entries:
In: Consider O=C(O)CCCCCCN1C(=O)CC[C@@H]1/C=C/C(O)c1cccc(-c2ccc(Cl)cc2)c1 (stereo partly specified) . Does its Ki lie strictly below 3000 nM?
Out: y

###

What follows is literature data on Ki for Prostaglandin E2 receptor EP4 subtype (Homo sapiens).
Label key: label 1 means Ki under 0.03 µM; label 0 means Ki of 0.03 µM or more.

In: Consider `O=C(CCc1ccccc1-c1cccc(CSCCc2ccccc2)c1)NS(=O)(=O)c1cccs1` . Does its Ki lie strictly below 0.03 µM?
Out: label 0

In: Now the compound `O=C(O)CCc1ccc(NCc2cccc(Oc3ccccc3)c2)cc1`
Out: label 0

In: Now the compound O=C(O)c1ccc(CCN2C(=O)CCN2CCC(O)Cc2cccc(C(F)(F)F)c2)cc1 (centres undefined)
Out: label 0

In: Now the compound `O=C(O)CCCCCCN1C(=O)CC[C@@H]1/C=C/[C@@H](O)Cc1cccc(C(F)(F)F)c1`
Out: label 1

In: Now the compound `COc1ccc(-c2cc(C(F)(F)F)nn2-c2nc(C(=O)O)cs2)cc1`
Out: label 0

In: Now the compound Cc1cccc(OCCCOc2ccc(-c3ccccc3CC(C)C(=O)NS(=O)(=O)c3cccs3)cc2)c1 (centres undefined)
Out: label 0

In: Now the compound `CCCCNC(=O)NS(=O)(=O)c1ccccc1-c1ccc(CN2C(=O)c3ccccc3CCc3ccccc32)cc1`
Out: label 0

Turning to the following compound.
In: Consider `O=C(O)CCCCCCN1C(=O)CC[C@@H]1CC[C@@H](O)c1cccc(C(F)(F)F)c1` . Does its Ki lie strictly below 0.03 µM?
Out: label 1

###

What follows is literature data on log10(Ki) for Prostaglandin E2 receptor EP4 subtype (Homo sapiens, UniProt P35408).
Heads up: the numbers are on a log10 scale; they represent Ki in µM.

Look over these answered cases.
In: Which log10(Ki) is reported for this compound? CC(Cc1ccccc1-c1csc(-c2ccccc2OCc2ccccc2)c1)C(=O)O (centres undefined)
Out: -0.01

In: Now the compound `C[C@H](NC(=O)c1cccc2c1N(Cc1ccc(-c3ccccc3)cc1)CC2)c1ccc(C(=O)O)cc1`
Out: -3.55

In: Now the compound `CCOc1c2c(c(OCC)c3ccccc13)CN(c1ccc(CC(=O)O)cc1)C2`
Out: -0.20

More entries:
In: Which log10(Ki) is reported for this compound? `Cc1ccc(C(=O)O)c(C)c1NC(=O)c1cc(-c2cccc(CO)c2)nc2ccccc12`
Out: -1.77

In: Now the compound `C[C@@H](c1ccc(C(F)(F)F)cc1)n1c2c(c3cc(F)cc(S(C)(=O)=O)c31)CCC[C@@H]2CC(=O)O`
Out: 0.82

In: Now the compound `COc1cc(C/C=C/c2ccccc2/C=C/C(=O)O)ccc1OCC[n+]1c(C)cc(/C=C/C=C/c2ccc(N(C)C)cc2)cc1C.F[B-](F)(F)F`
Out: -0.04

###

What follows is literature data on Ki for Prostaglandin E2 receptor EP4 subtype (Homo sapiens, UniProt P35408).
// return numeric value only (unit: nM, not printed)

Look over these answered cases.
In: Which Ki is reported for this molecule? `O=C(O)CCc1ccccc1-c1csc(-c2ccccc2OCc2ccccc2)c1`
Out: 650

In: Now the molecule `CCCCCC(=O)c1ccc([C@H]2[C@H](O)CC(=O)[C@@H]2C/C=C\CCCC(=O)O)cc1`
Out: 2810

In: Now the molecule `O=C(O)CCCCCCN1C(=O)CC[C@@H]1/C=C/[C@@H](O)CC1CCCCC1`
Out: 7.5

In: Now the molecule `O=C(Cc1ccccc1-c1ccc(CSCCc2ccccc2)cc1)NS(=O)(=O)c1cccs1`
Out: 850

Shifting focus to the molecule that follows.
In: Which Ki is reported for this molecule? `O=C(O)CCCCCNC(=O)[C@@H](CCCCNC(=O)OCc1ccccc1)NC(=O)c1cc2ccccc2o1`
Out: 240

###

What follows is literature data on log10(Ki) for Prostaglandin E2 receptor EP4 subtype (Homo sapiens, UniProt P35408).
Heads up: the numbers are on a log10 scale; they represent Ki in nM.

In: Which log10(Ki) is reported for this molecule? `COc1ccc(/C=C/Cc2ccccc2/C=C/C(=O)O)cc1.COc1ccc(C/C=C/c2ccccc2/C=C/C(=O)O)cc1`
Out: 3.79

In: Now the molecule `Cc1cccc(/C=C/Cc2ccccc2/C=C/C(=O)O)c1OCc1ccc(F)cc1`
Out: 3.38

In: Now the molecule `O=C(O)/C=C/c1ccccc1/C=C/Cc1cccc(CO)c1OCc1c(Cl)cccc1Cl.O=C(O)/C=C/c1ccccc1C/C=C/c1cccc(CO)c1OCc1c(Cl)cccc1Cl`
Out: 2.87

More entries:
In: Which log10(Ki) is reported for this molecule? `CCCCC(C)(C)[C@H](O)/C=C/[C@H]1CCC(=O)N1CCc1ccc(C(=O)O)cc1`
Out: 0.95

In: Now the molecule `O=C(O)CCc1ccccc1-c1cccc(-c2ccccc2COc2ccccc2)c1`
Out: 3.00

In: Now the molecule `Cc1cccc(OCCCOc2ccc(-c3ccccc3CNC(=O)NS(=O)(=O)c3cccs3)cc2)c1`
Out: 3.46
